Each item that follows carries a reported pIC50.
tested on: NCI-H2228; assay: Cytotoxicity in human NCI-H2228 cells harboring EML4-fused ALK variant 3 incubated for 72 hrs by alamar blue reagent based assay; format: functional, cell-based; settings: NCI-H2228, 72 h
Entry type: numeric. Quantity: pIC50, the -log10 of concentration in molar units.

>>> observed_value("CCc1cc2c(cc1N1CCC(N3CCOCC3)CC1)C(C)(C)c1c(c3ccc(C#N)cc3n1CCF)C2=O")
8.00
>>> observed_value("C[C@@H](Oc1cc(-c2cnn(C3CCN(CCF)CC3)c2)cnc1N)c1c(Cl)ccc(F)c1Cl")
5.12

I am curious: what pIC50 value has been reported for Cc1cc(Nc2ncc(Cl)c(Nc3ccccc3S(=O)(=O)C(C)C)n2)c(OC(C)C)cc1C1CCN(CCF)CC1 ? 4.62
